Data provenance: ChEMBL document CHEMBL1128892

Target: Alpha-1B adrenergic receptor (Homo sapiens)
Sequence (P35368 whole entry): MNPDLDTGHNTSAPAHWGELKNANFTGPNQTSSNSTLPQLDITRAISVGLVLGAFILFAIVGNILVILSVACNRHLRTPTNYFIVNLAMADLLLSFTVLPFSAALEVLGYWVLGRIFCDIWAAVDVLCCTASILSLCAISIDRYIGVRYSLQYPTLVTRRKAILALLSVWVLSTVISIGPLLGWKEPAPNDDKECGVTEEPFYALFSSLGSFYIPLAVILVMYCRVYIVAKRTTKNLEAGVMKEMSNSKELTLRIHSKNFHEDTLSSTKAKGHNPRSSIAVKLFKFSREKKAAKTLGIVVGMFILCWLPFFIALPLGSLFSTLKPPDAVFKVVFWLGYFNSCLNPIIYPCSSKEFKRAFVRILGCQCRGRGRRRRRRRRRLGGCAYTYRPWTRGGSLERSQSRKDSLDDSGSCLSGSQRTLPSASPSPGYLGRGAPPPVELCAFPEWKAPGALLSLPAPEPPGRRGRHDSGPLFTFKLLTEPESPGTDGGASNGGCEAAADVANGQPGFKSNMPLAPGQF
Kindly supply the reported pKi values for the records listed here.
Give bare numbers, as −log10 of the molar value.

Known pKi results, listed for orientation:
>  <Input smiles>
Brc1c(NC2=NCCS2)ccc2nccnc12

>  <Measurement name>
pKi

>  <Endpoint value>
4.22

$$$$
>  <Input smiles>
Cc1c(NC2=NCCN2)ccc2nccnc12

>  <Measurement name>
pKi

>  <Endpoint value>
5.48

$$$$
>  <Input smiles>
Brc1c(NC2=N[C@@H]3CCCC[C@@H]3N2)ccc2nccnc12

>  <Measurement name>
pKi

>  <Endpoint value>
3.98

$$$$
>  <Input smiles>
Ic1c(NC2=NCCN2)ccc2nccnc12

>  <Measurement name>
pKi

>  <Endpoint value>
5.72

$$$$
>  <Input smiles>
c1cnc2cc(NC3=NCCN3)ccc2n1

>  <Measurement name>
pKi

>  <Endpoint value>
5.49

$$$$
>  <Input smiles>
Brc1c(NC2=NCCN2)ccc2nccnc12

>  <Measurement name>
pKi

>  <Endpoint value>
5.27

$$$$
>  <Input smiles>
Brc1c(NC2=NCCO2)ccc2nccnc12

>  <Measurement name>
pKi

>  <Endpoint value>
3.85

$$$$

Consider Clc1c(NC2=NCCN2)ccc2nccnc12 . Its measured pKi is 4.98

###

Target: Alpha-2A adrenergic receptor (Homo sapiens, UniProt P08913)
Sequence (P08913 whole entry): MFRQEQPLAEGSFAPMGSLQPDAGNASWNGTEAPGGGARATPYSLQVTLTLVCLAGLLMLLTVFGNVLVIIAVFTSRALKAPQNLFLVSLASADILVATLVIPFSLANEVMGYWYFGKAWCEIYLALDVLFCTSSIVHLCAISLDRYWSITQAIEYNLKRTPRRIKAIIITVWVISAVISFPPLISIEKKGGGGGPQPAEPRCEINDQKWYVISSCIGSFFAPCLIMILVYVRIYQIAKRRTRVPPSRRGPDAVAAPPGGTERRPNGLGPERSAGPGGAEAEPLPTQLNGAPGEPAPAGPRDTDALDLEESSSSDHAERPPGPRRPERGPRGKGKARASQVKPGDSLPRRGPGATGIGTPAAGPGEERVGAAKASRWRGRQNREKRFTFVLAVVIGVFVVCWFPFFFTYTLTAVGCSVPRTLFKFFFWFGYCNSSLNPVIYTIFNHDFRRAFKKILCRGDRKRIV
Measurement notes: Alpha-2A adrenergic receptor agonistic potency as inhibition of forskolin-stimulated synthesis of cyclic adenosine monophosphate
Measurement name: pEC50
Numbers only, as −log10 of the molar value.

Known pEC50 results, listed for orientation:
>  <Compound>
Brc1c(NC2=NCCS2)ccc2nccnc12

>  <Endpoint value>
5.56

$$$$
>  <Compound>
CC1CN=C(Nc2ccc3nccnc3c2Br)N1 (configuration not stated)

>  <Endpoint value>
4.80

$$$$
>  <Compound>
Clc1c(NC2=NCCN2)ccc2nccnc12

>  <Endpoint value>
8.63

$$$$

I need pEC50 for every entry listed below, if you could help.
1. Brc1c(NC2=NCCN2)ccc2c1NCCN2
2. Cc1c(NC2=NCCN2)ccc2nccnc12
3. Cc1cnc2c(Br)c(NC3=NCCN3)ccc2n1

1. 8.55
2. 8.92
3. 6.07

Consider Ic1c(NC2=NCCN2)ccc2nccnc12 . Its measured pEC50 is 7.94
